# subject_of_test: Pantoea dispersa AlbD variant AlbD-M2, Glu25Arg (A74G)/Lys27Glu (A79G)/Ser40Gly (A118G) (Pantoea dispersa, UniProt O07822, K27E/Q25R/S40G)
# Sequence (O07822 entry or part of it Q25R/K27E/S40G): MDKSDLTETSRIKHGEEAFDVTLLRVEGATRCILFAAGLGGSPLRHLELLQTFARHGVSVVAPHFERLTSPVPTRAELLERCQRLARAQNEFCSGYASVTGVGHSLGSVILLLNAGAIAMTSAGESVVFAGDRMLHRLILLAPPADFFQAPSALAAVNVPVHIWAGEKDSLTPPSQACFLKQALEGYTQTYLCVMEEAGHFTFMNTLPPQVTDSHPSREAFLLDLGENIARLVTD
# method: Enzyme kinetics of AlbD-M2 with p-nitrophenyl compounds
# Type: biochemical, Pantoea dispersa SB1043
# study_conditions: PBS pH 7.4, room temperature, O.D405, means of triplicate
endpoint: Kcat

Below, each entry is followed by its recorded Kcat result.
1. CCCCCC(=O)Oc1ccc([N+](=O)[O-])cc1 [p-nitrophenyl caproate]
1.3 × 10^−1 S^−1
2. CCCC(=O)Oc1ccc([N+](=O)[O-])cc1 [p-nitrophenyl butyrate]
2.8 × 10^−2 S^−1
3. CCC(=O)Oc1ccc([N+](=O)[O-])cc1 [p-nitrophenol propionate, p-nitrophenyl propionate]
1.0 × 10^−1 S^−1

Which Kcat value belongs to CC(=O)Oc1ccc([N+](=O)[O-])cc1 [p-nitrophenol acetate, p-nitrophenyl acetate] ?
1.5 × 10^−2 S^−1
